- target_or_system: apo-transferrin (apoTf) (Homo sapiens, UniProt P02787)
- Sequence (P02787 20-698): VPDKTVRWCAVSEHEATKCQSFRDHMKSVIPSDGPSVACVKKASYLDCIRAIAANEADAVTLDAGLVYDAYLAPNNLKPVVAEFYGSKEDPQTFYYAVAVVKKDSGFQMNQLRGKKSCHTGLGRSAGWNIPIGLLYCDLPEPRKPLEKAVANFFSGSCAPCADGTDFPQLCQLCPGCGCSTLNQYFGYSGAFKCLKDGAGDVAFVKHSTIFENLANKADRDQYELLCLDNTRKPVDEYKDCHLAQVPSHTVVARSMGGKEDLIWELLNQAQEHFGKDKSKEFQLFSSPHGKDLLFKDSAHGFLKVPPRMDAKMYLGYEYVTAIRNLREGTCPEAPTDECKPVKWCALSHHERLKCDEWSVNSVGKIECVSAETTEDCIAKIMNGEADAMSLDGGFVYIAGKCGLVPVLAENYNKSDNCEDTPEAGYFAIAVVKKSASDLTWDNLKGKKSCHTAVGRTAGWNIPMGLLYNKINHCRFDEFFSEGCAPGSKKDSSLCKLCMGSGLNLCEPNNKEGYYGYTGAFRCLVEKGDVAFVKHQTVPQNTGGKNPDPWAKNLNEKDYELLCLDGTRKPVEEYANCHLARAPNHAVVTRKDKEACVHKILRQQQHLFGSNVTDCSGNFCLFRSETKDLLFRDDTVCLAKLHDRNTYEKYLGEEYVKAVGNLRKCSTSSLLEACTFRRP
- test_summary: Stability assessment in apoTf solution
- Format: in vitro ADME
- test_conditions: 74 kBq/100 μL added to same volume of 0.2 mM apoTf in 200 mM sodium bicarbonate buffer pH 7.4 (ApoTf 0.1 mM); 37 °C, 5% CO2; 3 h; RP-TLC; mean ± SD (n = 5)
Marks after values point to notes of the source that are not given here.
# maps each entry to its Stability of 67Ga-labeled model chelators, ApoTf (0.1 mM), 3 h
observed_property: Stability of 67Ga-labeled model chelators, ApoTf (0.1 mM), 3 h

compound	target_or_system	recorded_result
O=C([O-])CN1CCN(CC(=O)[O-])CCN(CC(=O)[O-])C(Cc2ccc([N+](=O)[O-])cc2)CN(CC(=O)[O-])CC1.[67Ga+3] (centres unmarked) [[^67Ga]Ga-p-NO2-Bn-DOTA (A)]	apo-transferrin (apoTf) (Homo sapiens, UniProt P02787)	95.1 ± 1.2 ^d ^e ^f
CCCCNC(=O)CCC(C(=O)[O-])N1CCN(CC(=O)[O-])CCN(CC(=O)[O-])CCN(CC(=O)[O-])CC1.[67Ga+3] (centres unmarked) [[^67Ga]Ga-DOTAGAM^Bu]	apo-transferrin (apoTf) (Homo sapiens, UniProt P02787)	80.0 ± 1.3 ^b ^c ^d
CCCCNC(=O)CN1CCN(CC(=O)[O-])CCN(CC(=O)[O-])CCN(CC(=O)[O-])CC1.[67Ga+3] [[^67Ga]Ga-DO3AM^Bu]	apo-transferrin (apoTf) (Homo sapiens, UniProt P02787)	87.4 ± 0.5 ^b ^c
O=C([O-])CN1CCN(CC(=O)[O-])CCN(CC(=O)[O-])CCN(CC(=O)[O-])CC1.[67Ga+3] [[^67Ga]Ga-DOTA, reference compound]	apo-transferrin (apoTf) (Homo sapiens, UniProt P02787)	96.4 ± 0.2
O=C([O-])CN1CCN(CC(=O)[O-])CCN(Cc2ccc([N+](=O)[O-])cc2)CCN(CC(=O)[O-])CC1.[67Ga+3] [[^67Ga]Ga-p-NO2-Bn-DO3A]	apo-transferrin (apoTf) (Homo sapiens, UniProt P02787)	93.8 ± 0.6 ^b

The measurements presented in this section are drawn from paper PMC9713862.
